Give measured half-life at 10 μM for each item. Keep answers brief.
# ASSAY: in-vitro metabolism in pooled human S9 liver fraction
# CONDITION INFO: human, s9
Numbers only, in min.

COMPOUND | UNIT NAME | OBSERVED MEASUREMENT
O=C1CC2(CCCC2)CC(=O)N1CCCCN1CCN(c2ncccn2)CC1 | min | 15.4

Reported half-life at 10 μM, compound COC(=O)CCOC(=O)c1cncn1[C@H](C)c1ccccc1 [MOC-(R)-etomidate] : ____
4.2

These entries and their values trace back to patent US9181197B2.
